# TARGET_SYSTEM: T1, serum resistance-associated protein (SRA) from Trypanosoma brucei rhodesiense, recombinant SRA (SEQ ID NO: … (Trypanosoma brucei rhodesiense, UniProt O96637 31-274))
# T1 construct: also called SRA protein
# T1 sequence: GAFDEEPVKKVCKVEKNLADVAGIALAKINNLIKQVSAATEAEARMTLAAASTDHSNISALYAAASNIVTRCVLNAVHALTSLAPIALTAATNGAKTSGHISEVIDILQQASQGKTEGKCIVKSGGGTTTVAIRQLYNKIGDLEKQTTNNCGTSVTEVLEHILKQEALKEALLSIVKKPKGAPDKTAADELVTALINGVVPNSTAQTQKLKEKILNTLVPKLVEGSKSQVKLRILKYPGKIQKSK
# EXPERIMENT_SUMMARY: SPR, mAb captured, 25C, pH 7.4
kon by entry:
Field: value (include unit after the number)

Worked examples, 2 binders total:
BINDER	kon
H2aM10285N (antibody, V domains shown, Chimeric antibody, human variable domains and mouse constant domains (mouse Fc, prefix H2aM); also called H2M10285N) VH: QVQLVQSGAEVKKPGSSVKVSCKASGGTFTNFAISWVRQAPGLGLEWMGGIIPFVGTATYEQKFQGRVSITADESTRTAYMELSSLRYDDTAVYYCARWFSGSGGDFDYWGQGTLVTVSS VL: AIQMTQSPSSLSASVGDRVTITCRASQGIGNDLGWYQQRRGTAPKLLIYAASSLQSGVPSRFSGSGSGTDFTLTISSLQPEDFATYYCLQDFTFPRTFGQGTKVEIK	1.03e+06 M⁻¹ s⁻¹
H1H10056P (antibody, V domains shown, Fully human antibody with human IgG1 Fc (prefix H1H)) VH: QVQLVESGGGVVQPGRSLRLSCSASGFTFSLYGMHWIRQAPGKGLEWVAVISYDGSNTYYGDSVKGRFTISRDNSKNTLYLQMNSLRTEDTAIYYCAKVYNWNYLFDYWGQGTLVTVSS VL: EIVLTQSPDTLSLSPGERATLSCRASQNVNNNFLAWYQQKPGQAPRLLIYGASSRATDIPERFSGSGSGTDFTLTISRLEPEDFAVYYCLHYVNSRTFGQGTKVEIK	372000 M⁻¹ s⁻¹

Now consider a different binder.
Ask: Given H1H10058P (antibody, V domains shown, Fully human antibody with human IgG1 Fc (prefix H1H)) VH: EVQLVESGGGLVQPGGSLRLSCAASGFTFNDFFMSWVRQAPGKGLEWVANLNQDGSERHYVDSVKGRFTISRDNAKNSLSLQMNSLRVEDTAVYYCAREGGDSWGQGTLVTVSS VL: DIVMTQSPDSLAVSLGERVTINCKSSQSILYSANNKDYLAWFHQKPGQPPKLLIYWASIRESGVPDRISGSGSGTDFTLTISSLQAEDVAVYYCQQYYLFPPTFGQGTKVEIK , state its recorded kon.
Result: 636000 M⁻¹ s⁻¹
